# targetOrTestSystem: T1, RANKL (human, UniProt O14788 140-317, limits assumed)
# T1 construct: also called Rank ligand
# T1 sequence (looked up): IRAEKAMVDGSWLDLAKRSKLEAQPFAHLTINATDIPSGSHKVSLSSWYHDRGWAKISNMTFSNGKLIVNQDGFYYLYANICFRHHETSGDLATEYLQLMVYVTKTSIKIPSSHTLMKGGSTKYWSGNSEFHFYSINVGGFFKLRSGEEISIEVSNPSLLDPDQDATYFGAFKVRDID
# assayRemarks: ELISA on coated RANKL, Fc-linked dimers; EC50 ratio to OPG(22-194).Fc wt; reduction in binding (higher EC50)
The reader will find reported RANKL fold change cf wt values listed item by item below.
Kindly answer with a numeric value in fold, unit omitted.

OVP I115N (Fc fusion, Tested as C-terminal Fc-linked dimer with FLAG tag, from HEK 293 EBNA cells; signal peptide 1-21 processed; not shown: human Fc domain of vector pAPEX-3.Fc; C-terminal FLAG tag) ETFPPKYLHYDEETSHQLLCDKCPPGTYLKQHCTAKWKTVCAPCPDHYYTDSWHTSDECLYCSPVCKELQYVKQECNRTHNRVCECKEGRYLENEFCLKHRSCPPGFGVVQAGTPERNTVCKRCPDGFFSNETSSKAPCRKHTNCSVFGLLLTQKGNATHDNICSGNSESTQK    1.1
OVP I115T, K51R (Fc fusion, Tested as C-terminal Fc-linked dimer with FLAG tag, from HEK 293 EBNA cells; signal peptide 1-21 processed; not shown: human Fc domain of vector pAPEX-3.Fc; C-terminal FLAG tag) ETFPPKYLHYDEETSHQLLCDKCPPGTYLRQHCTAKWKTVCAPCPDHYYTDSWHTSDECLYCSPVCKELQYVKQECNRTHNRVCECKEGRYLETEFCLKHRSCPPGFGVVQAGTPERNTVCKRCPDGFFSNETSSKAPCRKHTNCSVFGLLLTQKGNATHDNICSGNSESTQK    1.75

[Q] Query: RANKL fold change cf wt; subject: OVP I115M, R122N (Fc fusion, Tested as C-terminal Fc-linked dimer with FLAG tag, from HEK 293 EBNA cells; signal peptide 1-21 processed; also called I115M plus: R122N; not shown: human Fc domain of vector pAPEX-3.Fc; C-terminal FLAG tag) ETFPPKYLHYDEETSHQLLCDKCPPGTYLKQHCTAKWKTVCAPCPDHYYTDSWHTSDECLYCSPVCKELQYVKQECNRTHNRVCECKEGRYLEMEFCLKHNSCPPGFGVVQAGTPERNTVCKRCPDGFFSNETSSKAPCRKHTNCSVFGLLLTQKGNATHDNICSGNSESTQK
[A] 1.1

[Q] Recorded RANKL fold change cf wt of OVP I115M, N139D (Fc fusion, Tested as C-terminal Fc-linked dimer with FLAG tag, from HEK 293 EBNA cells; signal peptide 1-21 processed; not shown: human Fc domain of vector pAPEX-3.Fc; C-terminal FLAG tag) ETFPPKYLHYDEETSHQLLCDKCPPGTYLKQHCTAKWKTVCAPCPDHYYTDSWHTSDECLYCSPVCKELQYVKQECNRTHNRVCECKEGRYLEMEFCLKHRSCPPGFGVVQAGTPERDTVCKRCPDGFFSNETSSKAPCRKHTNCSVFGLLLTQKGNATHDNICSGNSESTQK , please.
[A] 1.75

[Q] Quick one: RANKL fold change cf wt of OVP I115S (Fc fusion, Tested as C-terminal Fc-linked dimer with FLAG tag, from HEK 293 EBNA cells; signal peptide 1-21 processed; not shown: human Fc domain of vector pAPEX-3.Fc; C-terminal FLAG tag) ETFPPKYLHYDEETSHQLLCDKCPPGTYLKQHCTAKWKTVCAPCPDHYYTDSWHTSDECLYCSPVCKELQYVKQECNRTHNRVCECKEGRYLESEFCLKHRSCPPGFGVVQAGTPERNTVCKRCPDGFFSNETSSKAPCRKHTNCSVFGLLLTQKGNATHDNICSGNSESTQK ?
[A] 1.4

[Q] Request the reported RANKL fold change cf wt associated with OVP I115M, R122E (Fc fusion, Tested as C-terminal Fc-linked dimer with FLAG tag, from HEK 293 EBNA cells; signal peptide 1-21 processed; also called I115M plus: R122E; not shown: human Fc domain of vector pAPEX-3.Fc; C-terminal FLAG tag) ETFPPKYLHYDEETSHQLLCDKCPPGTYLKQHCTAKWKTVCAPCPDHYYTDSWHTSDECLYCSPVCKELQYVKQECNRTHNRVCECKEGRYLEMEFCLKHESCPPGFGVVQAGTPERNTVCKRCPDGFFSNETSSKAPCRKHTNCSVFGLLLTQKGNATHDNICSGNSESTQK
[A] 1.2
